Listing: pIC50 of selected compounds
TARGET OR SYSTEM: CDK9/Cyclin T1 complex (Homo sapiens, UniProt P50750)
Sequence (P50750 whole entry): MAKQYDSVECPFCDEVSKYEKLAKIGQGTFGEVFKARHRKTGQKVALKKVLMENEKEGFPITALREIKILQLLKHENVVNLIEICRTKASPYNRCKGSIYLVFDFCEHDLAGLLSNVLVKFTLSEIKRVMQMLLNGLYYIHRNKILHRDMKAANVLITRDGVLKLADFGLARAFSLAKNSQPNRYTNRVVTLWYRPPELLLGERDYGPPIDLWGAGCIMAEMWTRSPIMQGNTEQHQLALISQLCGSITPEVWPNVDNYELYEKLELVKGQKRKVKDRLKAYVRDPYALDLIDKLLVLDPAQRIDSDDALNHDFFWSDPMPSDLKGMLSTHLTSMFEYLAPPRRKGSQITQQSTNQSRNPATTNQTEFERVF
Sequence (O60563 whole entry partner): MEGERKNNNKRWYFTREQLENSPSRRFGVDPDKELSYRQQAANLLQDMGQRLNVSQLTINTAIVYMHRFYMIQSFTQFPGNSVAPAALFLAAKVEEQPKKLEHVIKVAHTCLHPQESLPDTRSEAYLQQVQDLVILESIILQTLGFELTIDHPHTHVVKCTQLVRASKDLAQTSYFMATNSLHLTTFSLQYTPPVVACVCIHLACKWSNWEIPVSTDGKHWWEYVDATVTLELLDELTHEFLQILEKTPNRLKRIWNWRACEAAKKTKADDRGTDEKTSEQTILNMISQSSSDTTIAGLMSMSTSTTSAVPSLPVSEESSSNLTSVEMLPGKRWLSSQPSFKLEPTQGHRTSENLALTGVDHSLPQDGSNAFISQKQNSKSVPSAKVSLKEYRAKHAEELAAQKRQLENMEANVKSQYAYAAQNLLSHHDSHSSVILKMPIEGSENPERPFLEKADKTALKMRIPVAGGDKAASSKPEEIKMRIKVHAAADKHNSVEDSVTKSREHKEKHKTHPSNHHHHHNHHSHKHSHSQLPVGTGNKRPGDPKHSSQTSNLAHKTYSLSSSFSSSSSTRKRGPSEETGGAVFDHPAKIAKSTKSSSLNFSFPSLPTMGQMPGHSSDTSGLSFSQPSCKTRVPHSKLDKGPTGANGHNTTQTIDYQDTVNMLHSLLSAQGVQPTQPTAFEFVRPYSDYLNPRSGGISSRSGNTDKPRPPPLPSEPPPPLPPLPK
MEASUREMENT NOTES: CDK9 kinase inhibition assay (Caliper/LabChip EZ Reader)
CONDITION DETAILS: CDK9/Cyclin T1 8 nM, ATP 2 mM, 15 min at 27° C.
pIC50: −log10 of the molar value.

| COMPOUND | VALUE |
| --- | --- |
| CC1(C)CNC[C@@H](Nc2ncc(C(F)(F)F)c(-c3c[nH]c4cc(S(C)(=O)=O)ccc34)n2)C1 | ≤ 5.30 |

Given item CC(O)c1cnc(NC2CCCNC2)nc1-c1c[nH]c2ccccc12 (centres unmarked) [Compound 239] , the value recorded as its pIC50 is ≤ 5.30

Reported pIC50 of FC(F)(F)c1cnc(NC2CCCNC2)nc1-c1c[nH]c2cc(N3CCCC3)ccc12 (centres unmarked) : ≤ 5.30

pIC50 in this record for CCc1cnc(NC2CCCNC2)nc1-c1c[nH]c2c(F)cccc12 (centres unmarked) : 5.30 to 6.70

Form field pIC50, entry Cn1cc(-c2nc(NC3CCCNC3)ncc2C(F)(F)F)c2cccc(S(C)(=O)=O)c21 (centres unmarked) : ≤ 5.30

compound N#Cc1ccc2[nH]cc(-c3nc(NC4CCCNC4)ncc3C(F)(F)F)c2c1 (centres unmarked) , pIC50 observed: ≤ 5.30

Measured pIC50 of "CCc1cnc(N[C@H]2CCCNC2)nc1-c1n[nH]c2c(F)cccc12" : 5.30 to 6.70

// recorded pIC50 for O=S1(=O)CCN(c2cccc3c(-c4nc(NC5CCCNC5)ncc4Cl)c[nH]c23)CC1 (centres unmarked) : 5.30 to 6.70

pIC50 in this record for FC(F)(F)c1cnc(NC2CCCNC2)nc1-c1c[nH]c2cc(-c3cn[nH]c3)ccc12 (centres unmarked) : 5.30 to 6.70

Entry CC1NCCCC1Nc1ncc(Cl)c(-c2c[nH]c3ccccc23)n1 (centres unmarked) , pIC50 reported as 5.30 to 6.70

response.value for CCOP(=O)(OCC)c1cccc2c(-c3nc(NC4CCCNC4)ncc3C(F)(F)F)c[nH]c12 (centres unmarked) (field: pIC50) = ≤ 5.30

get_value(item= Clc1cnc(NC2CCCNC2)nc1-c1c[nH]c2ccccc12 (centres unmarked) [Compound 101] , readout=pIC50) returns 5.30 to 6.70

The value of pIC50 measured for the compound CCS(=O)(=O)c1ccc2c(-c3nc(NC4CCCNC4)ncc3C(F)(F)F)c[nH]c2c1 (centres unmarked) turned out to be 5.30 to 6.70

Input N#Cc1ccc2c(-c3nc(NC4CCCNC4)ncc3C(F)(F)F)c[nH]c2c1C#N (centres unmarked) . Output pIC50: 5.30 to 6.70

// recorded pIC50 for O=S(=O)(CF)c1ccc2c(-c3nc(NC4CCCNC4)ncc3C(F)(F)F)c[nH]c2c1 (centres unmarked) : 5.30 to 6.70

Measured pIC50 of CCOP(C)(=O)c1cccc2c(-c3nc(NC4CCCNC4)ncc3C(F)(F)F)c[nH]c12 (centres unmarked) : 5.30 to 6.70

pIC50 measured on Cc1nc(-c2ccc3c(-c4nc(NC5CCCNC5)ncc4C(F)(F)F)c[nH]c3c2)nn1C (centres unmarked) = ≤ 5.30

Value source: patent US20230000870A1
